Tgt: human ADRA2B receptor (Homo sapiens)
Construct: expressed in transfected cells
Sequence (P18089 1-450): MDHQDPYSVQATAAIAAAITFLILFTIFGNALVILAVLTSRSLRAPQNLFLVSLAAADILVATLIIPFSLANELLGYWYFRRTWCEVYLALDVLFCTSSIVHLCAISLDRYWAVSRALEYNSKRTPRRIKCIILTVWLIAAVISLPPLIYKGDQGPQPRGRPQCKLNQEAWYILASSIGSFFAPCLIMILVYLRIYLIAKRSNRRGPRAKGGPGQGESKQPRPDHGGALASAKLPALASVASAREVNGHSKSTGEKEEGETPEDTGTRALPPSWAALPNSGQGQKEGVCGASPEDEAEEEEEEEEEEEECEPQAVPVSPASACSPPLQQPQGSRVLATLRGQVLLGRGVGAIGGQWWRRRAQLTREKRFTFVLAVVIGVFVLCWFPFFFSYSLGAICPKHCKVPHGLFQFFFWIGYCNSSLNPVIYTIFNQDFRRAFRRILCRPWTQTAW
Measurement Notes: GTPγS agonist assay, ADRA2B receptor
Type: biochemical
Experimental Context: read-out: GTPase - Human Alpha2B EC50
Reported EC50 by item:

Asked: Fill in reported EC50 for this entry: "COc1cccc(C[C@@H](c2cnc[nH]2)c2cccc(Cl)c2C)n1"
Given back: < 10 nM

Asked: Please indicate EC50 recorded for Cc1cccc(C(Cc2ccc(N3CCCC3)nc2)c2c[nH]cn2)c1C (centres unmarked)
Given back: 10 to 50 nM

Asked: Read off the recorded EC50 for "COc1c(C)cccc1[C@H](Cc1ccccn1)c1cnc[nH]1"
Given back: > 500 nM

Asked: Entry COc1nccc(CC(c2c[nH]cn2)c2cccc(OC)c2C)n1 (centres unmarked) needs its EC50 filled in; supply it.
Given back: 10 to 50 nM

Asked: Read the entry "COc1cccc(C[C@H](c2c[nH]cn2)c2cccc(Cl)c2Cl)n1" and write its reported EC50.
Given back: > 500 nM

====

Tgt: human ADRA2B receptor (Homo sapiens, UniProt P18089)
Construct: expressed in transfected cells
Measurement Notes: GTPγS agonist assay, ADRA2B receptor
Assay type: biochemical
Experimental Context: read-out: GTPase - Human Alpha2B EC50
pEC50: −log10 of the molar value.
The entries below are paired with their reported pEC50.

Would you please look over these solved cases?
>  <Molecule>
COc1cccc(C[C@H](c2cccc(C)c2)c2cnc[nH]2)n1

>  <pEC50>
< 6.30

$$$$
>  <Molecule>
Cc1cnc(CC(c2c[nH]cn2)c2cccc3c2OCC3)s1 (stereo not drawn)

>  <pEC50>
7.30 to 8.00

$$$$
>  <Molecule>
COc1nccc(CC(c2ccc(Cl)cc2)c2c[nH]cn2)n1 (stereo not drawn)

>  <pEC50>
6.30 to 7.30

$$$$

Asked: Enter measured pEC50, system human ADRA2B receptor (Homo sapiens, UniProt P18089), for the molecule shown: C#Cc1cccc(C(Cc2cccnn2)c2c[nH]cn2)c1 (stereo not drawn)
Given back: < 6.30

====

Recorded EC50, one value per entry.
Tgt: human ADRA2B receptor (Homo sapiens, UniProt P18089)
Construct: expressed in transfected cells
Measurement Notes: ADRA2B arrestin agonist assay
Type: cell-based
Experimental Context: CHO-K1 cells stably expressing human ADRA2B; read-out: Beta-Arrestin - Human Alpha2B EC50

Below are worked cases with known answers.
>  <Compound>
COC(C)(C)c1nccc(CC(c2c[nH]cn2)c2cccc(C)c2C)n1 (stereo not shown)

>  <Tgt>
human ADRA2B receptor (Homo sapiens, UniProt P18089)

>  <EC50>
< 10 nM

$$$$
>  <Compound>
COc1nccc(CC(c2c[nH]cn2)c2cccc(Cl)c2F)n1 (stereo not shown)

>  <Tgt>
human ADRA2B receptor (Homo sapiens, UniProt P18089)

>  <EC50>
10 to 50 nM

$$$$
>  <Compound>
COCc1nccc(CC(c2c[nH]cn2)c2cccc3c2OCC3)n1 (stereo not shown)

>  <Tgt>
human ADRA2B receptor (Homo sapiens, UniProt P18089)

>  <EC50>
< 10 nM

$$$$
>  <Compound>
Cc1cccc(C(Cc2ccc(N(C)C)nc2)c2c[nH]cn2)c1C (stereo not shown)

>  <Tgt>
human ADRA2B receptor (Homo sapiens, UniProt P18089)

>  <EC50>
< 10 nM

$$$$
>  <Compound>
c1cc2c(c(C(Cc3cccn4ccnc34)c3c[nH]cn3)c1)OCC2 (stereo not shown)

>  <Tgt>
human ADRA2B receptor (Homo sapiens, UniProt P18089)

>  <EC50>
> 500 nM

$$$$
>  <Compound>
c1cc2c(c(C(Cc3ccn4ccnc4c3)c3c[nH]cn3)c1)OCC2 (stereo not shown)

>  <Tgt>
human ADRA2B receptor (Homo sapiens, UniProt P18089)

>  <EC50>
< 10 nM

$$$$
>  <Compound>
Cc1cc(C[C@@H](c2c[nH]cn2)c2cccc(C)c2F)ncn1

>  <Tgt>
human ADRA2B receptor (Homo sapiens, UniProt P18089)

>  <EC50>
< 10 nM

$$$$
>  <Compound>
Cc1cccc(C(Cc2ncns2)c2c[nH]cn2)c1C (stereo not shown)

>  <Tgt>
human ADRA2B receptor (Homo sapiens, UniProt P18089)

>  <EC50>
< 10 nM

$$$$

Read the next record carefully.
Asked: Note EC50 for the compound shown: "Cc1cccc([C@H](Cc2cnco2)c2c[nH]cn2)c1C"
Given back: < 10 nM

====

Examples of molecules with documented EC50 follow.
Tgt: human ADRA2B receptor (Homo sapiens, UniProt P18089)
Construct: expressed in transfected cells
Measurement Notes: GTPγS agonist assay, ADRA2B receptor
Type: biochemical
Experimental Context: read-out: GTPase - Human Alpha2B EC50

// known answers, use as guide
>  <Molecule>
Cc1cc(C[C@H](c2cnc[nH]2)c2cccc(C)c2C)n(C)n1

>  <Experimental Result>
> 500 nM

$$$$
>  <Molecule>
COc1nccc(C[C@H](c2c[nH]cn2)c2cccc(C)c2C)n1

>  <Experimental Result>
< 10 nM

$$$$
>  <Molecule>
Cc1cc(C[C@@H](c2c[nH]cn2)c2cccc(C)c2C)no1

>  <Experimental Result>
> 500 nM

$$$$
>  <Molecule>
COc1cccc(C[C@H](c2c[nH]cn2)c2cccc3c2OCC3)n1

>  <Experimental Result>
< 10 nM

$$$$
>  <Molecule>
COc1nccc(CC(c2c[nH]cn2)c2cccc(Cl)c2C#N)n1 (stereo not drawn)

>  <Experimental Result>
50 to 500 nM

$$$$
>  <Molecule>
Cc1cccc([C@H](Cc2cncs2)c2c[nH]cn2)c1C

>  <Experimental Result>
< 10 nM

$$$$
>  <Molecule>
Cc1cc(C[C@H](c2c[nH]cn2)c2cccc(C)c2C)no1

>  <Experimental Result>
< 10 nM

$$$$
>  <Molecule>
Cc1cccc([C@@H](Cc2cccnc2)c2cnc[nH]2)c1Cl

>  <Experimental Result>
50 to 500 nM

$$$$

Consider the additional molecule presented here.
Asked: Output EC50 of COc1cccc(C(Cc2cccc(OC)n2)c2cnc[nH]2)c1 (stereo not drawn)
Given back: 50 to 500 nM

====

Tgt: human ADRA2B receptor (Homo sapiens)
Construct: expressed in transfected cells
Measurement Notes: GTPγS agonist assay, ADRA2B receptor
Type: biochemical
Experimental Context: read-out: GTPase - Human Alpha2B EC50
pEC50: −log10 of the molar value.
Recorded Metric: pEC50

Known pEC50 results, listed for orientation:
>  <Molecule>
Cc1cccc([C@H](Cc2ccccn2)c2cnc[nH]2)c1Cl

>  <Experimental Result>
< 6.30

$$$$
>  <Molecule>
Cc1cccc([C@@H](Cc2cccc(C(F)(F)F)n2)c2c[nH]cn2)c1C

>  <Experimental Result>
< 6.30

$$$$
>  <Molecule>
Cc1cccc(C(Cc2cccc(=O)[nH]2)c2cnc[nH]2)c1C (stereo not shown)

>  <Experimental Result>
< 6.30

$$$$
>  <Molecule>
c1ccc(C[C@@H](c2cnc[nH]2)c2cccc3c2COC3)nc1

>  <Experimental Result>
< 6.30

$$$$

Asked: Give measured pEC50 for c1cnnc(C[C@@H](c2c[nH]cn2)c2cccc3c2OCC3)c1 (single isomer, unassigned) (human ADRA2B receptor (Homo sapiens)).
Given back: 7.30 to 8.00

====

Tgt: human ADRA2B receptor (Homo sapiens, UniProt P18089)
Construct: expressed in transfected cells
Measurement Notes: GTPγS agonist assay, ADRA2B receptor
Type: biochemical
Experimental Context: read-out: GTPase - Human Alpha2B EC50
Recorded EC50 values for a group of compounds are listed next.

These solved cases illustrate the format of a correct answer.
>  <Compound>
Cc1cccc(C(Cc2ccncc2)c2cnc[nH]2)c1C (centres unmarked)

>  <EC50>
< 10 nM

$$$$
>  <Compound>
COc1cccc(CC(c2c[nH]cn2)c2ccnc(C)c2C)n1 (centres unmarked)

>  <EC50>
> 500 nM

$$$$
>  <Compound>
Cc1cccc(C(Cc2cocn2)c2c[nH]cn2)c1C (centres unmarked)

>  <EC50>
< 10 nM

$$$$
>  <Compound>
COc1c(Cl)cccc1C(Cc1cccnn1)c1c[nH]cn1 (centres unmarked)

>  <EC50>
> 500 nM

$$$$
>  <Compound>
COc1nccc(CC(c2c[nH]cn2)c2cccc(C)c2Cl)n1 (centres unmarked)

>  <EC50>
< 10 nM

$$$$

Asked: # return recorded EC50 for entry "COc1c(C)cccc1[C@@H](Cc1ccccn1)c1cnc[nH]1"
Given back: > 500 nM

Asked: Dear colleague, please send me the reported EC50 for COc1nccc(CC(c2c[nH]cn2)c2cccc3cn[nH]c23)n1 (centres unmarked) when you can.
Given back: > 500 nM

Asked: For the compound "COc1cccc(C[C@@H](c2c[nH]cn2)c2cccc(OC)c2Cl)n1" , report EC50.
Given back: < 10 nM

Asked: Tell us which EC50 value is on record for COc1nccc(CC(c2ccc(OC(F)(F)F)cc2)c2c[nH]cn2)n1 (centres unmarked)
Given back: > 500 nM

Asked: Read off the recorded EC50 for "FC(F)Oc1cccc([C@@H](Cc2ccccn2)c2cnc[nH]2)c1"
Given back: > 500 nM

Asked: Retrieve EC50 measured for "Cc1cccc([C@H](Cc2ccn(C)n2)c2c[nH]cn2)c1C" and print it.
Given back: 10 to 50 nM

Asked: Consider the compound "COc1cccc(C[C@@H](c2c[nH]cn2)c2cccc(Cl)c2Cl)n1" . State its measured EC50.
Given back: < 10 nM

Asked: Provide one value: measured EC50 of "Cc1cccc([C@H](Cc2cccnc2)c2cnc[nH]2)c1C"
Given back: 50 to 500 nM

Asked: Using the record for Cc1ccc(Cl)cc1C(Cc1cccnn1)c1c[nH]cn1 (centres unmarked) , state its measured EC50.
Given back: > 500 nM

Asked: Using known records, supply EC50 for "c1cnnc(C[C@H](c2c[nH]cn2)c2cccc3c2OCC3)c1"
Given back: > 500 nM
